Just for reference, PubChem BioAssay (Tox21) is where these values come from.

target.or.system: Voltage-gated inwardly rectifying potassium channel KCNH2 (Homo sapiens)
assay.details: Human Ether-a-go-go-Related Gene (hERG) channel small molecule antagonists: fluorescence cell-based qHTS assay (AID 1671200);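 note: hERG-expressing U2OS cells given a thallium stimulus after FluxOR II dye loading; % is set by controls: 0 for no effect and ±100 for the full control effect; nearly all actives have a fitted effect of over 50% in size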
study.conditions: hERG-U2OS cells, FluxOR thallium flux fluorescence; series mostly up to 76.8 µM
Excerpt: National Center for Advancing Translational Sciences [NCATS] U.S. Environmental Protection Agency [EPA] National Institutes of Environmental Health Sciences [NIEHS] National Toxicology Program [NTP] U.S. Food and Drug Administration [FDA] Mutations in the hERG channel cause Long QT (LQT) syndrome. LQT syndrome is a cardiac disorder which can cause ventricle arrhythmia and sudden death. Additionally, compounds which block the hERG channel can cause acquired LQT syndrome. […]
Results filed as inconclusive are left out. Activity calls are given as the source filed them. Calls come from the whole dose curve; as a rule, active = well fitted inhibition curve with a large enough effect in the repeat runs; inconclusive = weak or mixed curves; inactive = flat fitted curve, though single readings scatter.
parameter.measured: activity change, negative = inhibition

1. CC(=O)CC(C)C    inactive
2. CCN(CC)CCNC(=O)c1cc(S(C)(=O)=O)ccc1OC    inactive
3. Cc1c(NC(C)C)c(=O)n(-c2ccccc2)n1C    inactive
4. COC(=O)CCSCCC(=O)OC    inactive
5. O=Cc1cccc([N+](=O)[O-])c1    inactive
6. NCCCNCCSP(=O)(O)O    -1.01% [at 6.97 µM] (inactive)

Q. Item under review: `CCCCOCCOCCOCCCC` . Reported activity change, negative = inhibition?
A. inactive
